Entry source: patent US10246411B2

Below are GI50 values measured for HCT-116.
readout kind: GI50 (µM)

{"compound": "COc1ccc(S(=O)(=O)Nc2cc(/C=C\\c3cc(OC)c(OC)c(OC)c3)ccc2OC)cc1 [12a]", "data value": 0.0797}
{"compound": "COc1ccc(/C=C\\c2cc(OC)c(OC)c(OC)c2)c(NS(=O)(=O)c2ccc(Cl)cc2)c1O [17c]", "data value": 0.114}
{"compound": "COc1ccc(S(=O)(=O)Nc2c(/C=C\\c3cc(OC)c(OC)c(OC)c3)ccc(OC)c2O)cc1 [17a]", "data value": 0.032}
{"compound": "COc1ccc(S(=O)(=O)Nc2cc(/C=C\\c3cc(OC)c(OC)c(OC)c3)cc(OC)c2OC)cc1 [13a]", "data value": 0.035}
{"compound": "COc1cc(/C=C\\c2cc(OC)c(OC)c(OC)c2)cc(NS(=O)(=O)c2ccc(Cl)cc2)c1OC [13c]", "data value": 0.469}

---

- Tested on: SN12C
// reported log10(GI50) per item
readout kind: log10(GI50) (log10 of the value in µM)

{"molecule": "COc1cc(/C=C\\c2cc(OC)c(OC)c(OC)c2)cc(NS(=O)(=O)c2ccc(Cl)cc2)c1OC [13c]", "log10(GI50)": -0.12}
{"molecule": "COc1ccc(S(=O)(=O)Nc2c(/C=C\\c3cc(OC)c(OC)c(OC)c3)ccc(OC)c2O)cc1 [17a]", "log10(GI50)": -1.06}
{"molecule": "COc1ccc(S(=O)(=O)Nc2cc(/C=C\\c3cc(OC)c(OC)c(OC)c3)cc(OC)c2OC)cc1 [13a]", "log10(GI50)": -1.16}
{"molecule": "COc1ccc(S(=O)(=O)Nc2cc(/C=C\\c3cc(OC)c(OC)c(OC)c3)ccc2OC)cc1 [12a]", "log10(GI50)": -0.17}
{"molecule": "COc1ccc(/C=C\\c2cc(OC)c(OC)c(OC)c2)c(NS(=O)(=O)c2ccc(Cl)cc2)c1O [17c]", "log10(GI50)": -0.15}

---

- Tested on: A498
Quick rule for you: GI50 under 20 nM gets TRUE, anything else gets FALSE.

{"compound": "COc1ccc(/C=C\\c2cc(OC)c(OC)c(OC)c2)c(NS(=O)(=O)c2ccc(Cl)cc2)c1O [17c]", "label class": "FALSE"}
{"compound": "COc1ccc(S(=O)(=O)Nc2cc(/C=C\\c3cc(OC)c(OC)c(OC)c3)cc(OC)c2OC)cc1 [13a]", "label class": "FALSE"}
{"compound": "COc1cc(/C=C\\c2cc(OC)c(OC)c(OC)c2)cc(NS(=O)(=O)c2ccc(Cl)cc2)c1OC [13c]", "label class": "FALSE"}
{"compound": "COc1ccc(S(=O)(=O)Nc2c(/C=C\\c3cc(OC)c(OC)c(OC)c3)ccc(OC)c2O)cc1 [17a]", "label class": "TRUE"}
{"compound": "COc1ccc(S(=O)(=O)Nc2cc(/C=C\\c3cc(OC)c(OC)c(OC)c3)ccc2OC)cc1 [12a]", "label class": "FALSE"}
